The compounds listed here are annotated with their IC50.
- Assayed System: mouse CD38 (Mus musculus (Mouse))
- Run Description: NAD+ cyclase activity assay with mouse recombinant CD38 protein
- Experimental Parameters: 0.6 nM mouse CD38, 15.8 μM e-NAD substrate, fluorescence read-out

# example entries with known answers
[
  {
    "Compound": "Cc1cc(C(=O)N[C@H]2COCCC2(F)F)nc(-n2ccnc2)c1 [Compound 70A]",
    "Measurement Type": "IC50",
    "Experimental Value": "1 to 10 nM"
  },
  {
    "Compound": "Cc1cc(C(=O)NC2CCOCC2(C)C)nc(-n2ccnc2)c1 (stereo not drawn) [Compound 27A]",
    "Measurement Type": "IC50",
    "Experimental Value": "10 to 100 nM"
  },
  {
    "Compound": "Cc1cc(C(=O)N[C@H]2CCS(=O)(=O)C2)nc(-n2ccnc2)c1 [Compound 55A]",
    "Measurement Type": "IC50",
    "Experimental Value": "1 to 10 nM"
  },
  {
    "Compound": "Cc1cc(C(=O)N[C@@H]2CCC(=O)NC2=O)nc(-n2ccnc2)c1 [Compound 63A]",
    "Measurement Type": "IC50",
    "Experimental Value": "10 to 100 nM"
  },
  {
    "Compound": "CC(=O)N1CCC(NC(=O)c2cc(C)cc(-n3ccnc3)n2)CC1 [Compound 10A]",
    "Measurement Type": "IC50",
    "Experimental Value": "1 to 10 nM"
  },
  {
    "Compound": "Cc1cc(C(=O)NC2COCC(F)(F)C2)nc(-n2ccnc2)c1 (stereo not drawn) [Compound 26A]",
    "Measurement Type": "IC50",
    "Experimental Value": "1 to 10 nM"
  }
]

Recorded IC50 for Cc1cc(C(=O)N[C@H]2CCOC2)nc(-n2ccnc2)c1 [Compound 38A] , please?
1 to 10 nM

Query: IC50; subject: CNC(=O)N1CCC(NC(=O)c2cc(C)cc(-n3ccnc3)n2)CC1 [Compound 22A]
1 to 10 nM

Need IC50 of Cc1cc(C(=O)N[C@@H]2CCS(=O)(=O)C2)nc(-n2ccnc2)n1 [Compound 68A] , thanks.
< 1 nM

Record request: IC50 value, item Cc1cc(C(=O)N[C@@H]2CCCOC2)nc(-n2ccnc2)c1 [Compound 44A]
< 1 nM

Requested read-out: IC50. Entry: Cc1cc(C(=O)N[C@@H]2COCCC2(F)F)nc(-n2ccnc2)c1 [Compound 71A]
< 1 nM

Consider the compound shown here: Cc1cc(C(=O)N[C@@H]2CCCS(=O)(=O)C2)nc(-n2ccnc2)c1 [Compound 57A] What is its recorded IC50?
1 to 10 nM

I would be grateful if you could share the reported IC50 for Cc1cc(C(=O)NC2CCN(S(=O)(=O)N(C)C)CC2)nc(-n2ccnc2)c1 [Compound 18A] .
1 to 10 nM

Quick check: IC50 of O=C(N[C@@H]1CCCOC1)c1cc(C(F)(F)F)cc(-n2ccnc2)n1 [Compound 62A] ?
1 to 10 nM

Data request, read-out IC50, for O=C(N[C@@H]1CCS(=O)(=O)C1)c1ccnc(-n2ccnc2)n1 [Compound 74A]
1 to 10 nM

Param item = Cc1cc(C(=O)NC2CCCOC2)nc(-n2ccnc2)c1 (stereo not drawn) [Compound 9A] ; retrieve measured IC50.
1 to 10 nM

Form field: reported IC50 of CS(=O)(=O)N1CCC(NC(=O)c2cccc(-n3ccnc3)n2)CC1 [Compound 16A]
1 to 10 nM

# input compound: Cc1cc(C(=O)N[C@@H]2CCCN(C)C2=O)nc(-n2ccnc2)c1 [Compound 56A] ; wanted: its IC50
> 100 nM

###

- Assayed System: mouse CD38 (Mus musculus (Mouse), UniProt P56528)
- Sequence (P56528 whole entry): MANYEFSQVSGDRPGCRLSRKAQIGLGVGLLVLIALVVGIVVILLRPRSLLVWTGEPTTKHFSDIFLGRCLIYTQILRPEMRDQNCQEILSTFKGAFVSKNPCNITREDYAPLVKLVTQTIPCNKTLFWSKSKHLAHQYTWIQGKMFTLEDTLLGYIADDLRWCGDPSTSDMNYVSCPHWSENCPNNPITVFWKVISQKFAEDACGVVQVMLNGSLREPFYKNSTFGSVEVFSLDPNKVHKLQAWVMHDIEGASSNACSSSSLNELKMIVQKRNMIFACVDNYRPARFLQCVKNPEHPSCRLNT
- Run Description: NAD+ cyclase activity assay with mouse recombinant CD38 protein
- Experimental Parameters: 0.6 nM mouse CD38, 15.8 μM e-NAD substrate, fluorescence read-out
Measurement Type: IC50

Known results for compounds:
[
  {
    "Compound": "Cc1cc(C(=O)NC2CCN(S(=O)(=O)C3CCCCC3)CC2)nc(-n2ccnc2)c1",
    "Experimental Value": "1 to 10 nM"
  },
  {
    "Compound": "Cc1cc(C(=O)NC2CCC(F)(F)C2)nc(-n2ccnc2)c1 (stereo not drawn) [Compound 35A]",
    "Experimental Value": "1 to 10 nM"
  }
]

Turning now to a further compound:
Quick one: IC50 for Cc1cc(C(=O)NC2CCC(C)(C)OC2)nc(-n2ccnc2)c1 (stereo not drawn) [Compound 29A] ?
1 to 10 nM

###

- Assayed System: mouse CD38 (Mus musculus (Mouse))
- Run Description: NAD+ cyclase activity assay with mouse recombinant CD38 protein
- Experimental Parameters: 0.6 nM mouse CD38, 15.8 μM e-NAD substrate, fluorescence read-out
pIC50: −log10 of the molar value.
Entries and their pIC50

# count of solved cases: 3
[
  {
    "Molecule": "CCCC(=O)N1CCC(NC(=O)c2cc(C)cc(-n3ccnc3)n2)CC1 [Compound 13A]",
    "Assayed System": "mouse CD38 (Mus musculus (Mouse))",
    "Experimental Value": "8.00 to 9.00"
  },
  {
    "Molecule": "Cc1cc(C(=O)NC2COCCC2(F)F)nc(-n2ccnc2)c1 (stereo not shown) [Compound 25A]",
    "Assayed System": "mouse CD38 (Mus musculus (Mouse))",
    "Experimental Value": "8.00 to 9.00"
  },
  {
    "Molecule": "Cc1cc(C(=O)NC2CCNCC2)nc(-n2ccnc2)c1 [Compound 11A]",
    "Assayed System": "mouse CD38 (Mus musculus (Mouse))",
    "Experimental Value": "8.00 to 9.00"
  }
]

Which pIC50 reading was recorded for the molecule Cc1cc(C(=O)NC2CCOC(C)C2)nc(-n2ccnc2)c1 (stereo not shown) [Compound 30A] ?
8.00 to 9.00

Which pIC50 is listed for Cc1cc(C(=O)N[C@@H]2CCCN(S(C)(=O)=O)C2)nc(-n2ccnc2)c1 [Compound 54A] ?
8.00 to 9.00

So what does the record say about pIC50 for Cc1cc(C(=O)N[C@H]2CCCN(S(C)(=O)=O)C2)nc(-n2ccnc2)c1 [Compound 50A] ?
8.00 to 9.00

Name the reported pIC50 value associated with the molecule Cc1cc(C(=O)N[C@H]2CCC(C)(C)OC2)nc(-n2ccnc2)c1 [Compound 65A]
8.00 to 9.00

I have this molecule here, Cc1cc(C(=O)NC2CCOC(C)(C)C2)nc(-n2ccnc2)c1 (stereo not shown) [Compound 24A] , and I need its recorded pIC50.
8.00 to 9.00

Request the reported pIC50 associated with Cc1cc(C(=O)NC2CCOCC2)nc(-n2ccnc2)c1 [Compound 32A]
8.00 to 9.00

State the recorded pIC50 for this entry: CS(=O)(=O)N1CCC(NC(=O)c2cc(C(F)(F)F)cc(-n3ccnc3)n2)CC1 [Compound 82A]
8.00 to 9.00

Look up pIC50 for this molecule: Cc1cc(C(=O)NC2CCN(S(=O)(=O)C3CC3)CC2)nc(-n2ccnc2)c1
8.00 to 9.00

###

- Assayed System: mouse CD38 (Mus musculus (Mouse))
- Run Description: NAD+ cyclase activity assay with mouse recombinant CD38 protein
- Experimental Parameters: 0.6 nM mouse CD38, 15.8 μM e-NAD substrate, fluorescence read-out
pIC50: −log10 of the molar value.
Known pIC50 of a selection of molecules

// query pIC50 value for entry Cc1cc(C(=O)NC2CN(S(C)(=O)=O)C2)nc(-n2ccnc2)c1 [Compound 7A]
8.00 to 9.00

Recorded pIC50 of Cc1cc(C(=O)NC2C3COCC32)nc(-n2ccnc2)c1 (centres unmarked) [Compound 31A] , please.
8.00 to 9.00

Returns the measured pIC50 for the input molecule. Input: Cc1cc(C(=O)N[C@H]2CCCN(C)C2=O)nc(-n2ccnc2)c1 [Compound 85A]
7.00 to 8.00

Need pIC50, item Cc1ccc(-n2ccnc2)nc1C(=O)NC1CCN(S(C)(=O)=O)CC1 [Compound 79A]
7.00 to 8.00

Given the entry Cc1cc(C(=O)NC2CCN(C(=O)CN3CCOCC3)CC2)nc(-n2ccnc2)c1 [Compound 19A] , report its measured pIC50.
8.00 to 9.00

###

- Assayed System: mouse CD38 (Mus musculus (Mouse))
- Run Description: NAD+ cyclase activity assay with mouse recombinant CD38 protein
- Experimental Parameters: 0.6 nM mouse CD38, 15.8 μM e-NAD substrate, fluorescence read-out
pIC50: −log10 of the molar value.
Reported pIC50 values follow for various compounds

The cases that follow already have their pIC50 on record.
[
  {
    "Compound": "CCS(=O)(=O)N1CCC(NC(=O)c2cc(C)cc(-n3ccnc3)n2)CC1",
    "pIC50": "8.00 to 9.00"
  },
  {
    "Compound": "Cc1cc(C(=O)N[C@@H]2CCOC2)nc(-n2ccnc2)c1 [Compound 42A]",
    "pIC50": "8.00 to 9.00"
  },
  {
    "Compound": "Cc1cc(C(=O)N[C@@H]2CCCN(C3COC3)C2)nc(-n2ccnc2)c1 [Compound 83A]",
    "pIC50": "7.00 to 8.00"
  },
  {
    "Compound": "Cc1cc(C(=O)N[C@@H]2CCN(S(C)(=O)=O)C2)nc(-n2ccnc2)c1 [Compound 53A]",
    "pIC50": "8.00 to 9.00"
  },
  {
    "Compound": "Cc1cc(C(=O)N[C@@H]2CCCNC2=O)nc(-n2ccnc2)c1 [Compound 58A]",
    "pIC50": "7.00 to 8.00"
  }
]

Name the recorded pIC50 for Cc1cc(C(=O)N[C@H]2CCCS(=O)(=O)C2)nc(-n2ccnc2)c1 [Compound 84A] .
7.00 to 8.00

Report pIC50 for Cc1cc(C(=O)NC2CCN(S(=O)(=O)C3CCOC3)CC2)nc(-n2ccnc2)c1 (centres unmarked) [Compound 72A] please.
> 9.00

So what's the measured pIC50 for this one? Cc1cc(C(=O)N[C@@H]2CCS(=O)(=O)C2)nc(-n2ccnc2)c1 [Compound 86A]
8.00 to 9.00

Reported pIC50 for Cc1cc(C(=O)N[C@H]2COCC(F)(F)C2)nc(-n2ccnc2)c1 [Compound 66A] : what is it?
> 9.00

Which pIC50 value is on record for Cc1cc(C(=O)N[C@@H]2CCCOC2)nc(-n2ccnc2)n1 [Compound 69A] ?
> 9.00

Which pIC50 reading was recorded for the compound Cc1cc(C(=O)NC2COCC(F)(F)C2)nc(-n2ccnc2)c1 (stereo in doubt) [Compound 67A] ?
8.00 to 9.00
